- targetUnderTest: canine TRPM8 (Canis lupus familiaris)
- Sequence (Q1A7N1 1-1104): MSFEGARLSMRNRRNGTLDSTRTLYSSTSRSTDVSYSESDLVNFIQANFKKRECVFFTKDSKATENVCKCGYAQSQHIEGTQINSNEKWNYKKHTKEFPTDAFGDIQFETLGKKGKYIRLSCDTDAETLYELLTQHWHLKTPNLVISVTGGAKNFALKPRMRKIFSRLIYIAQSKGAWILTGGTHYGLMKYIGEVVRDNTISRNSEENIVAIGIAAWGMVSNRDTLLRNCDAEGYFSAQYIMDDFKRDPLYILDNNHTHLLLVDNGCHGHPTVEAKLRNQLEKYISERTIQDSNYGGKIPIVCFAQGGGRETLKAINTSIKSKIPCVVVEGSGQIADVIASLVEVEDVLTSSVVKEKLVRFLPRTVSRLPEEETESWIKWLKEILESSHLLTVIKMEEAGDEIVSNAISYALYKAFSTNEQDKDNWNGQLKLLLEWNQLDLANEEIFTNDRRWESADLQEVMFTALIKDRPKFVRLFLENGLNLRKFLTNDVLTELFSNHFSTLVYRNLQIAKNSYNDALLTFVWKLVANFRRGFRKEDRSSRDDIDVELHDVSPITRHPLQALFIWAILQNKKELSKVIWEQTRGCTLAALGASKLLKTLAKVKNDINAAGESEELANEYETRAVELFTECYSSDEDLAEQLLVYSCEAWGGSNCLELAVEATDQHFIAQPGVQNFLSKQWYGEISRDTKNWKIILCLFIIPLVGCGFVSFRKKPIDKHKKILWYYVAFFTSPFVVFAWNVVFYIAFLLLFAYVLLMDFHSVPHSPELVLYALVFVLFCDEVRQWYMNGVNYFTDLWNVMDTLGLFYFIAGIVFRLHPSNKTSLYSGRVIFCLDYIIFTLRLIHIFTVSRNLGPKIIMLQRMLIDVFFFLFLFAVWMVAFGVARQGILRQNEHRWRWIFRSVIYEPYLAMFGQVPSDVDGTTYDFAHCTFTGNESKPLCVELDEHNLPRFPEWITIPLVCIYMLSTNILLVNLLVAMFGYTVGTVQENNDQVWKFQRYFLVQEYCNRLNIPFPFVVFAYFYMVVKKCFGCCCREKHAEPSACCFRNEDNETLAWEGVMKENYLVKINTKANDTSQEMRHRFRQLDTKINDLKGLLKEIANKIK
- assayInfo: In vitro canine TRPM8 functional assay (Ca2+-sensitive fluorescent dye, icilin activation)
- Assay type: cell-based
- conditionDetails: 0.2 μM compound; HEK293 cells stably expressing canine TRPM8; icilin-induced Ca2+ response
Measured inhibition at 0.2 µM, listed per entry for reference.
# number only, unit % dropped from output

The following molecules have reported results that may help.
>>> df
                                   molecule  unittag  number
0  COc1nc(-c2ccccc2C(F)(F)F)cc2nc(-c3cc(C(C)(C)C)nn3C)[nH]c12 [Compound 80]        %     100
1  COc1nc(-c2ccccc2C(F)(F)F)cc2[nH]c(-c3onc(C(C)(C)C)c3C#N)nc12 [Compound 13]        %      94
2  Cn1nc(C(C)(C)C)c(Cl)c1-c1nc2cc(-c3ccccc3C(F)(F)F)nc(OCCO)c2[nH]1 [Compound 57]        %     101

Query :: Endpoint output: inhibition at 0.2 µM of COc1nc(-c2ccccc2Cl)cc2nc(-c3nc(C(C)(C)C)cn3C)[nH]c12 [Compound 111] . Value?
Result :: 62

Query :: Please do the same for Cn1nc(C(C)(C)C)c(Cl)c1-c1nc2cc(-c3ccccc3Cl)nc(OCCN3CCOCC3)c2[nH]1 [Compound 54] as well.
Result :: 99

Source of measurements: patent US9409915B2
